Consider the following compounds; for each one, report its Ht.
Species on record: Rattus norvegicus
assay-remarks: Open TG-GATES - Regimen: Daily Repeat
Assay type: toxicity, organism-based, Sprague-Dawley
Set-up: regimen Daily Repeat, gender Male, age 6 weeks
conditions-used: in vivo, po, 1000 mg/kg, […], tissue Blood, route gavage, dose level High, time 14 day
Numbers only, in %.

>>> print(df.to_string())
                                   compound  reading
0    O=C(O)c1ccccc1Nc1ccccc1 [FENAMIC ACID]     41.7
1  CC(=O)[C@@]1(O)CC[C@H]2[C@@H]3C=C(Cl)C4=CC(=O)CC[C@]4(C)[C@H]3CC[C@@]21C [CHLORMADINONE]       45

Field: Ht. Fill in for each record below.
1. CC(S)C(=O)NCC(=O)O (centres undefined) [TIOPRONIN]
2. CCCCNC(=O)NS(=O)(=O)c1ccc(C)cc1 [TOLBUTAMIDE]

A:
1. 41.1
2. 43.7
